Assay Summary: Pharmacokinetic Assay, single oral dose 5 mg/kg (Table 12)
Assay type: in vivo
Settings: mouse; plasma concentration, C57 female mice, single oral dose 5 mg/kg, 4 h
Entries and their measured concentration at 4 h follow.
Numbers only; they are read as ng/mL.

Examples with their reported concentration at 4 h follow.
{"columns": ["Compound", "Observed Value"],
 "data": [
  ["Cc1c(-c2ccc(CN3CCCC3)c(C#N)c2)cccc1-c1cccc(-c2nc3cc(CN4CCC[C@H]4C(=O)O)c(OC(F)F)cc3o2)c1C [Example 245]", 191],
  ["Cc1c(-c2nc3cc(CN4CCC[C@H]4C(=O)O)c(OC(F)F)cc3o2)cccc1-c1cccc(-c2ccc(CN3CCCC3)s2)c1C [Example 280]", 113]
]}

Lab note: next compound to report on.
Quote concentration at 4 h reported for COc1nc(-c2cccc(-c3cccc(-c4nc5cc(CN6CCC[C@H]6C(=O)O)c(OC(F)F)cc5o4)c3C)c2C)cnc1CN1CCCC1 [Example 285] please. 41.8
